B1: Connector enhancer of kinase suppressor of ras 2, residues 9 to 71; numbered along this chain, Q8WXI2 (parent)
chain: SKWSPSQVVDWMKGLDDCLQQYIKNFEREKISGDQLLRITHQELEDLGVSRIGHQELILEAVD

Variants of: B1
Experiment: abundance fitness (aPCA) (normalised: wild type 0, dead -1); higher = more abundant; growth selection in yeast, the domain comes from the species named
Details: Homo sapiens
Outcome: Y for abundance fitness of at least -0.6; N for anything lower.

Input: Hi team, for L15Y , is the recorded abundance fitness at or above -0.6?
Output: N

Input: Hi team, for R28N , is the recorded abundance fitness at or above -0.6?
Output: Y

Input: Hi team, for S32N , is the recorded abundance fitness at or above -0.6?
Output: Y

Input: Hi team, for E60W , is the recorded abundance fitness at or above -0.6?
Output: N

Input: Hi team, for I31K , is the recorded abundance fitness at or above -0.6?
Output: N

Input: Hi team, for Q21I , is the recorded abundance fitness at or above -0.6?
Output: Y

Input: Hi team, for V49K , is the recorded abundance fitness at or above -0.6?
Output: N

Input: Hi team, for L57F , is the recorded abundance fitness at or above -0.6?
Output: Y

Input: Hi team, for E45H , is the recorded abundance fitness at or above -0.6?
Output: Y

Input: Hi team, for R51V , is the recorded abundance fitness at or above -0.6?
Output: Y

The reported measurements were obtained from the Human Domainome abundance scans (Beltran et al. 2025).
